# Test system: 873145-292-R-J1-PDC complex spheroid viability
# MEASUREMENT_NOTES: Anticancer human tumor 873145-292-R-J1-PDC patient-derived renal clear cell carcinoma cell line growth inhibition [POLQ]
# REPORTED_CONDITIONS: curve of first compound; second compound 0.1 µM
PROPERTY_LABEL: IC50

COMPOUND | PROPERTY_LABEL | REPORTED
CC[C@@]1(O)C(=O)OCc2c1cc1n(c2=O)Cc2cc3c(CN(C)C)c(O)ccc3nc2-1 + COC1C(OC(N)=O)C(O)C(Oc2ccc3c(O)c(NC(=O)c4ccc(O)c(CC=C(C)C)c4)c(=O)oc3c2C)OC1(C)C | IC50 | > 0.1 µM
O=C(c1cc(Cc2n[nH]c(=O)c3ccccc23)ccc1F)N1CCN(C(=O)C2CC2)CC1 + Cc1cccc(N(C)C(=O)C2C(O)CCN2c2nc(C)cc(C(F)(F)F)c2C#N)c1 | IC50 | > 10 µM
CCCS(=O)(=O)Nc1ccc(F)c(C(=O)c2c[nH]c3ncc(-c4ccc(Cl)cc4)cc23)c1F + Nc1ccc(C#CCN(C(=O)Cc2ncc(C(F)(F)F)cc2C(F)(F)F)c2ccc(F)cc2)nn1 | IC50 | > 10 µM
CC[C@@]1(O)C(=O)OCc2c1cc1n(c2=O)Cc2cc3c(CN(C)C)c(O)ccc3nc2-1 + Cc1cccc(N(C)C(=O)C2C(O)CCN2c2nc(C)cc(C(F)(F)F)c2C#N)c1 | IC50 | > 0.1 µM
CC1COCCN1c1cc(-c2ccnn2C)c2ccnc(-c3ccn[nH]3)c2n1 (stereo not given) + COC1C(OC(N)=O)C(O)C(Oc2ccc3c(O)c(NC(=O)c4ccc(O)c(CC=C(C)C)c4)c(=O)oc3c2C)OC1(C)C | IC50 | 0.986 µM
COc1ccc([C@@H](O)c2cc(-c3ncnc4cc(N5CCOCC5)ccc34)c(F)cc2Cl)nn1 + Cc1cccc(N(C)C(=O)C2C(O)CCN2c2nc(C)cc(C(F)(F)F)c2C#N)c1 | IC50 | 7.85 µM
COc1ccc([C@@H](O)c2cc(-c3ncnc4cc(N5CCOCC5)ccc34)c(F)cc2Cl)nn1 + Nc1ccc(C#CCN(C(=O)Cc2ncc(C(F)(F)F)cc2C(F)(F)F)c2ccc(F)cc2)nn1 | IC50 | 5.13 µM
C#Cc1c(F)ccc2cc(O)cc(-c3ncc4c(N5CC6CCC(C5)N6)nc(OCC56CCCN5CC(F)C6)nc4c3F)c12 (stereo not given) + Cc1cccc(N(C)C(=O)C2C(O)CCN2c2nc(C)cc(C(F)(F)F)c2C#N)c1 | IC50 | > 10 µM
CC(=O)O[C@H]1C(=O)[C@@]2(C)[C@H]([C@H](OC(=O)c3ccccc3)[C@]3(O)C[C@H](OC(=O)[C@H](O)[C@@H](NC(=O)c4ccccc4)c4ccccc4)C(C)=C1C3(C)C)[C@]1(OC(C)=O)CO[C@@H]1C[C@@H]2O + Cc1cccc(N(C)C(=O)C2C(O)CCN2c2nc(C)cc(C(F)(F)F)c2C#N)c1 | IC50 | > 3 µM
C=CCn1c(=O)c2cnc(Nc3ccc(N4CCN(C)CC4)cc3)nc2n1-c1cccc(C(C)(C)O)n1 + COC1C(OC(N)=O)C(O)C(Oc2ccc3c(O)c(NC(=O)c4ccc(O)c(CC=C(C)C)c4)c(=O)oc3c2C)OC1(C)C | IC50 | > 1 µM

* * *

// reported viability, T/C for each item listed
# Tested on: 873145-292-R-J1-PDC complex spheroid viability
# MEASUREMENT_NOTES: Anticancer human tumor 873145-292-R-J1-PDC cell line growth inhibition [POLQ];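 also: spheroids exposed to compounds for 7 days before viability readout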;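 as to viability, T/C: luminescence signal used as surrogate for viable cell content; 100% = DMSO vehicle control viability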
# REPORTED_CONDITIONS: second compound 1 µM; first compound 1 µM; stronger effect = lower value
PROPERTY_LABEL: viability, T/C (%)

MOLECULE | REPORTED
C#Cc1c(F)ccc2cc(O)cc(-c3ncc4c(N5CC6CCC(C5)N6)nc(OCC56CCCN5CC(F)C6)nc4c3F)c12 (stereo not given) + Cc1cccc(N(C)C(=O)C2C(O)CCN2c2nc(C)cc(C(F)(F)F)c2C#N)c1 | 93.7
C=CC(=O)N1CCN(c2nc(=O)n(-c3c(C)ccnc3C(C)C)c3nc(-c4c(O)cccc4F)c(F)cc23)C(C)C1 (stereo not given) + COC1C(OC(N)=O)C(O)C(Oc2ccc3c(O)c(NC(=O)c4ccc(O)c(CC=C(C)C)c4)c(=O)oc3c2C)OC1(C)C | 104
CNCc1ccc(-c2[nH]c3cc(F)cc4c3c2CCNC4=O)cc1 + COC1C(OC(N)=O)C(O)C(Oc2ccc3c(O)c(NC(=O)c4ccc(O)c(CC=C(C)C)c4)c(=O)oc3c2C)OC1(C)C | 86.7
COc1cc2cc(C(=O)CCC(=O)O)sc2cc1OC + COC1C(OC(N)=O)C(O)C(Oc2ccc3c(O)c(NC(=O)c4ccc(O)c(CC=C(C)C)c4)c(=O)oc3c2C)OC1(C)C | 100
Nc1ccn(C2OC(CO)C(O)C2(F)F)c(=O)n1 (stereo not given) + Nc1ccc(C#CCN(C(=O)Cc2ncc(C(F)(F)F)cc2C(F)(F)F)c2ccc(F)cc2)nn1 | 70.3
O=C(Nc1ccc(O)c(NS(=O)(=O)c2ccc(F)cc2)c1)c1ccc(-c2ccccc2)cc1 + COC1C(OC(N)=O)C(O)C(Oc2ccc3c(O)c(NC(=O)c4ccc(O)c(CC=C(C)C)c4)c(=O)oc3c2C)OC1(C)C | 97.2
CC1COCCN1c1cc(C2(S(C)(=N)=O)CC2)nc(-c2ccnc3[nH]ccc23)n1 (stereo not given) + Cc1cccc(N(C)C(=O)C2C(O)CCN2c2nc(C)cc(C(F)(F)F)c2C#N)c1 | 96
O=c1[nH]cc(F)c(=O)[nH]1 + Cc1cccc(N(C)C(=O)C2C(O)CCN2c2nc(C)cc(C(F)(F)F)c2C#N)c1 | 95
CCc1cc2c(N3CCc4c(cc(Cn5ccnc5)cc4-c4cn(C)nc4C(F)(F)F)C3=O)ccnc2c(OC)n1 + Nc1ccc(C#CCN(C(=O)Cc2ncc(C(F)(F)F)cc2C(F)(F)F)c2ccc(F)cc2)nn1 | 87.6
CCc1cc2c(N3CCc4c(cc(Cn5ccnc5)cc4-c4cn(C)nc4C(F)(F)F)C3=O)ccnc2c(OC)n1 + COC1C(OC(N)=O)C(O)C(Oc2ccc3c(O)c(NC(=O)c4ccc(O)c(CC=C(C)C)c4)c(=O)oc3c2C)OC1(C)C | 104
C=CC(=O)N1CCN(c2nc(=O)n(-c3c(C)ccnc3C(C)C)c3nc(-c4c(O)cccc4F)c(F)cc23)C(C)C1 (stereo not given) + Cc1cccc(N(C)C(=O)C2C(O)CCN2c2nc(C)cc(C(F)(F)F)c2C#N)c1 | 123
COc1cccc2c1C(=O)c1c(O)c3c(c(O)c1C2=O)CC(O)(C(=O)CO)CC3OC1CC(N)C(O)C(C)O1 (stereo not given) + Cc1cccc(N(C)C(=O)C2C(O)CCN2c2nc(C)cc(C(F)(F)F)c2C#N)c1 | 66.4
CCc1c2c(nc3ccc(O)cc13)-c1cc3c(c(=O)n1C2)COC(=O)[C@]3(O)CC + Nc1ccc(C#CCN(C(=O)Cc2ncc(C(F)(F)F)cc2C(F)(F)F)c2ccc(F)cc2)nn1 | 39.9
COc1cccc2c1C(=O)c1c(O)c3c(c(O)c1C2=O)CC(O)(C(=O)CO)CC3OC1CC(N)C(O)C(C)O1 (stereo not given) + COC1C(OC(N)=O)C(O)C(Oc2ccc3c(O)c(NC(=O)c4ccc(O)c(CC=C(C)C)c4)c(=O)oc3c2C)OC1(C)C | 68.5
CC(C)n1c(=O)n(C)c2cnc3cc(F)c(-c4ccc(OCCCN5CCCCC5)nc4)cc3c21 + COC1C(OC(N)=O)C(O)C(Oc2ccc3c(O)c(NC(=O)c4ccc(O)c(CC=C(C)C)c4)c(=O)oc3c2C)OC1(C)C | 94.1
O=C(Nc1ccc(O)c(NS(=O)(=O)c2ccc(F)cc2)c1)c1ccc(-c2ccccc2)cc1 + Nc1ccc(C#CCN(C(=O)Cc2ncc(C(F)(F)F)cc2C(F)(F)F)c2ccc(F)cc2)nn1 | 98.2
CCc1c2c(nc3ccc(O)cc13)-c1cc3c(c(=O)n1C2)COC(=O)[C@]3(O)CC + Cc1cccc(N(C)C(=O)C2C(O)CCN2c2nc(C)cc(C(F)(F)F)c2C#N)c1 | 29.4
CCCS(=O)(=O)Nc1ccc(F)c(C(=O)c2c[nH]c3ncc(-c4ccc(Cl)cc4)cc23)c1F + Nc1ccc(C#CCN(C(=O)Cc2ncc(C(F)(F)F)cc2C(F)(F)F)c2ccc(F)cc2)nn1 | 102
C=CCn1c(=O)c2cnc(Nc3ccc(N4CCN(C)CC4)cc3)nc2n1-c1cccc(C(C)(C)O)n1 + Cc1cccc(N(C)C(=O)C2C(O)CCN2c2nc(C)cc(C(F)(F)F)c2C#N)c1 | 75.5
COc1cccc(OCCCN)c1-c1cc(Nc2cnc(C#N)cn2)n[nH]1 + Nc1ccc(C#CCN(C(=O)Cc2ncc(C(F)(F)F)cc2C(F)(F)F)c2ccc(F)cc2)nn1 | 73.3
